Value source: ChEMBL document CHEMBL5380835

Tested on: SK-MEL-2
Assay: Cytotoxicity against human SK-MEL-2 cells assessed as inhibition of cell viability treated for 48 hrs measured after 24 hrs
Assay type: functional, cell-based
measurement type: IC50 (µM)
Please respond with the number in µM and leave the unit unwritten.

The reported value for CCCCCCCCN=c1ccn(CCCCCCCCCCn2ccc(=NCCCCCCCC)cc2)cc1.Cl.Cl [OCTENIDINE HYDROCHLORIDE] in terms of IC50 is 2.11

====

System: SK-MEL-2
Assay: Antiproliferative activity against human SK-MEL-2 cells assessed as cell growth inhibition incubated for 12 hrs by EdU assay
Format: functional, cell-based
Conditions: SK-MEL-2, 12 h
measurement type: pIC50
Recall that pIC50 is obtained by taking minus log10 of the concentration measured in molar.

The reported value for CCCCCCCCN=c1ccn(CCCCCCCCCCn2ccc(=NCCCCCCCC)cc2)cc1.Cl.Cl [OCTENIDINE HYDROCHLORIDE] in terms of pIC50 is 5.69

====

Tested on: SK-MEL-2
Test: Cytotoxicity against human SK-MEL-2 cells assessed as inhibition of cell viability treated for 72 hrs measured after 72 hrs
Format: functional, cell-based
Settings: SK-MEL-2, 72 h
measurement type: pIC50
Recall that pIC50 is obtained by taking minus log10 of the concentration measured in molar.

The reported value for CCCCCCCCN=c1ccn(CCCCCCCCCCn2ccc(=NCCCCCCCC)cc2)cc1.Cl.Cl [OCTENIDINE HYDROCHLORIDE] in terms of pIC50 is 6.34

====

Test: Binding affinity to NRAS RNA G-quadruplex 5'-r(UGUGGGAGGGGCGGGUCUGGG)-3' (unknown origin) by TO displacement assay
measurement type: pEC50
Recall that pEC50 is obtained by taking minus log10 of the concentration measured in molar.

The reported value for CCCCCCCCN=c1ccn(CCCCCCCCCCn2ccc(=NCCCCCCCC)cc2)cc1.Cl.Cl [OCTENIDINE HYDROCHLORIDE] in terms of pEC50 is 5.80

====

Experiment: Binding affinity to 5'-FAM-labeled to NRAS RNA G-quadruplex 5'-r(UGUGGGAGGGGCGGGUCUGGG)-3' (unknown origin) assessed as dissociation constant by fluorescence quenching assay
measurement type: pKd
Recall that pKd is obtained by taking minus log10 of the concentration measured in molar.

The reported value for CCCCCCNc1cc[n+](CCCC[n+]2ccc(NCCCCCC)cc2)cc1 in terms of pKd is 6.12

The reported value for CCCCCNc1cc[n+](CCCC[n+]2ccc(NCCCCC)cc2)cc1 in terms of pKd is 5.78

The reported value for CCCNc1cc[n+](CCCCCC[n+]2ccc(NCCC)cc2)cc1 in terms of pKd is 5.52

The reported value for CCCCCCCCN=c1ccn(CCCCCCn2ccc(=NCCCCCCCC)cc2)cc1 in terms of pKd is 6.49

The reported value for CCCCCNc1cc[n+](CCCCCCCCCC[n+]2ccc(NCCCCC)cc2)cc1 in terms of pKd is 5.73

The reported value for CCCCCCNc1cc[n+](CCCCCC[n+]2ccc(NCCCCCC)cc2)cc1 in terms of pKd is 6.13

The reported value for CCCNc1cc[n+](CCCC[n+]2ccc(NCCC)cc2)cc1 in terms of pKd is 6.68

The reported value for CCCCCNc1cc[n+](CCCCCC[n+]2ccc(NCCCCC)cc2)cc1 in terms of pKd is 5.89

The reported value for CCCNc1cc[n+](CCCCCCCCCC[n+]2ccc(NCCC)cc2)cc1 in terms of pKd is 5.76

The reported value for CCCCCCCCN=c1ccn(CCCCCCCCCCn2ccc(=NCCCCCCCC)cc2)cc1.Cl.Cl [OCTENIDINE HYDROCHLORIDE] in terms of pKd is 6.31

The reported value for CCCCCCCCNc1cc[n+](CCCC[n+]2ccc(NCCCCCCCC)cc2)cc1 in terms of pKd is 5.87

The reported value for CCCCCCNc1cc[n+](CCCCCCCCCC[n+]2ccc(NCCCCCC)cc2)cc1 in terms of pKd is 6.54
